# Test system: NK-YS (IL-2 2.5 ng/mL)
# assay_name: relative IC50 (inflection point of fitted viability curve, relative to fitted max inhibition); higher = less sensitive
# cond: 72 h
quantity_kind: relative IC50 (nM)

1) CN1CCN(c2cc(C(=O)Nc3ccc4c(c3)-c3c(c(C(N)=O)nn3-c3ccc(F)cc3)CC4)c(Cl)cn2)CC1: 2440
2) CC(=O)c1c(C)c2cnc(Nc3ccc(N4CCNCC4)cn3)nc2n(C2CCCC2)c1=O: 413
3) COc1cc2c(NC3CCN(C(C)C)CC3)nc(C3CCCCC3)nc2cc1OCCCN1CCCC1: 2570
4) Cc1cc(Nc2cc(CN3CCOCC3)c3nc(C)c(Cc4ccc(Cl)cc4F)n3n2)n[nH]1: 260
5) CN(c1ncccc1CNc1nc(Nc2ccc3c(c2)CC(=O)N3)ncc1C(F)(F)F)S(C)(=O)=O: 1310
6) COc1cc([C@@H]2c3cc4c(cc3[C@@H](O[C@@H]3O[C@@H]5CO[C@@H](c6cccs6)O[C@H]5[C@H](O)[C@H]3O)[C@H]3COC(=O)[C@H]23)OCO4)cc(OC)c1O [Teniposide]: 13.3
7) COc1ccc(C[C@H](NC(=O)[C@H](C)NC(=O)CN2CCOCC2)C(=O)N[C@@H](Cc2ccccc2)C(=O)C2(C)CO2)cc1 (stereo in doubt): 38.1
8) NCC(=O)Nc1ccc(-n2nc(C(F)(F)F)cc2-c2ccc3c(ccc4ccccc43)c2)cc1: 1980
9) COc1cc2c(cc1O)CC[C@@H]1[C@@H]2CC[C@]2(C)[C@@H](O)CC[C@@H]12: 260
10) CCS(=O)(=O)c1cccc(-c2cc(C(=O)NC3CCN(C)CC3)c(C)c3[nH]c4ncc(C)cc4c23)c1: 30.8
11) CC(=O)NCC(=O)N1[C@@H]2CC[C@H]1c1ccc(Nc3ncc(C(F)(F)F)c(NC4CCC4)n3)cc12: 111
12) S=c1[nH]cnc2nc[nH]c12: 725
13) C[C@@H]1C[C@H]2O[C@@H]2/C=C\C=C\C(=O)Cc2c(Cl)c(O)cc(O)c2C(=O)O1: 198
